Test system: Spodoptera littoralis
experiment-summary: Example B1: Spodoptera littoralis (Egyptian cotton leaf worm), cotton leaf disc spray, L1 larvae
Format: in vivo
measurement-conditions: foliar, 72 h, application rate 200 ppm, 3 days after infestation, read-out: control (at least one of mortality, anti-feedant effect, growth inhibition)
measured-metric: control at 200 ppm

compound	control at 200 ppm
Cc1cccc(C)c1NC(=S)Nc1cnc2cc(-c3ncn(-c4ccc(OC(F)(F)F)cc4)n3)ccc2n1 [Compound P2.11]	≥ 80%
Cc1cccc(C)c1N1C(=O)CS/C1=N\c1ncc2cc(-c3ncn(-c4ccc(OC(F)(F)F)cc4)n3)ccc2n1 [Compound P2.9]	≥ 80%

Alright, here's another compound for you.
Would you mind telling me what control at 200 ppm value was observed for Cc1cccc(C)c1N1CS/C1=N\c1cnc2cc(-c3ncn(-c4ccc(OC(F)(F)F)cc4)n3)ccc2n1 [Compound P2.12] ?
≥ 80%

Source listed as patent US10687531B2.
